assayed.system: Neuronal acetylcholine receptor; alpha3/beta4 (Rattus norvegicus, UniProt P04757+P12392)
Sequence (P04757 whole entry): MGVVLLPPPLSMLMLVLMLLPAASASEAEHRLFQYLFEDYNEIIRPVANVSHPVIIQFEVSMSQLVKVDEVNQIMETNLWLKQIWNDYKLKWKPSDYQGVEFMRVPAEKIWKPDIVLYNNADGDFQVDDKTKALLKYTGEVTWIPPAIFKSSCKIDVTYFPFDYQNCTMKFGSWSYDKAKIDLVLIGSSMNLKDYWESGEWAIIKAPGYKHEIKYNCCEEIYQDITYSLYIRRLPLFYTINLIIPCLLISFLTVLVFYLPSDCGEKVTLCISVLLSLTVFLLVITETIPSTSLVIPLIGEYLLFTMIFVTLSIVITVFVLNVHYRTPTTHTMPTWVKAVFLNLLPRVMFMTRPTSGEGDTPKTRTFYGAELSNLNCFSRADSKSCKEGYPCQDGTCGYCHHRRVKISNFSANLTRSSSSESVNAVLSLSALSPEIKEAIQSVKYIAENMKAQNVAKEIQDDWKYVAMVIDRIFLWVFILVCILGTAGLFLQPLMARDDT
Sequence (P12392 whole entry): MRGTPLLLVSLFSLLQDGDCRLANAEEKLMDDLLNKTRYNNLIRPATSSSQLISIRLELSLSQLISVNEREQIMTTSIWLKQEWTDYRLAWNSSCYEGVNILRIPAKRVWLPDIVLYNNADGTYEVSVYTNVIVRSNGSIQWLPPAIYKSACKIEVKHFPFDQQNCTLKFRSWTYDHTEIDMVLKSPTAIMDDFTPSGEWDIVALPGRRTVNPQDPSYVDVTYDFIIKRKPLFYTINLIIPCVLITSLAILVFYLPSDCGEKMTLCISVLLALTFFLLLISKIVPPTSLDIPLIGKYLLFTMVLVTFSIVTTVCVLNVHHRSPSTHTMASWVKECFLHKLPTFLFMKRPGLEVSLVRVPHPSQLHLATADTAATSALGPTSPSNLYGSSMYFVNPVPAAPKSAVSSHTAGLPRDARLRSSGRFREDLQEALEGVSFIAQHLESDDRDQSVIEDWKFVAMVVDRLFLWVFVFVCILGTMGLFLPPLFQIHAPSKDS
measurement.notes: Effective concentration against alpha3-beta4 nicotinic acetylcholine receptor (nAChR) expressed in IMR32 cell
Type: cell-based, IMR-32
parameter: EC50 (µM)
Only the number, expressed in µM, is required.

Bench note, Neuronal acetylcholine receptor; alpha3/beta4 (Rattus norvegicus, UniProt P04757+P12392): entry CN1CCCC1COc1cccnc1 (stereo unspecified) , its EC50 = 63

* * *

measurement.notes: Lethal dose against rodents; Range = 1.37e5 nmol/kg
Type: toxicity
recorded.conditions: rodentia
parameter: LD50 (µmol/kg)
Only the number, expressed in µmol/kg, is required.

Record Cc1cc([C@@H]2CCCN2C)on1 [ABT-418] , field LD50: 137

* * *

assayed.system: Neuronal acetylcholine receptor; alpha4/beta2 (Rattus norvegicus, UniProt P09483+P12390)
Sequence (P09483 whole entry): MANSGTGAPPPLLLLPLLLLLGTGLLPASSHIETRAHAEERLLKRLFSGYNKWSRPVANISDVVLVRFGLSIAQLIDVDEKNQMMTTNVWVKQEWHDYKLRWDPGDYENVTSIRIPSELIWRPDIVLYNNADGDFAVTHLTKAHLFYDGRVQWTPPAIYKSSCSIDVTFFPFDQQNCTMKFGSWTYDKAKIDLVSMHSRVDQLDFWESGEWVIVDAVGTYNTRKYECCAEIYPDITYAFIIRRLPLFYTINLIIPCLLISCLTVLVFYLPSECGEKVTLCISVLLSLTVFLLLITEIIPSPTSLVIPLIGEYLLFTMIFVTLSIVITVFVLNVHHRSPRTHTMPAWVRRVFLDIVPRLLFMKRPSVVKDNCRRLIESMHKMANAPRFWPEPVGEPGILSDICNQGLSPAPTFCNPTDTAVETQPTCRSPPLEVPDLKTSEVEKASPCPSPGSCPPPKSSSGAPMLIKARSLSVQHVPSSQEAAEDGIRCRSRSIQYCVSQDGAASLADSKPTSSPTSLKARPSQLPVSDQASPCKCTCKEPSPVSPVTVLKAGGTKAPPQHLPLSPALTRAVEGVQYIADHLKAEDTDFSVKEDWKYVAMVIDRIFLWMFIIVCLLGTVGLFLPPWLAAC
Sequence (P12390 whole entry): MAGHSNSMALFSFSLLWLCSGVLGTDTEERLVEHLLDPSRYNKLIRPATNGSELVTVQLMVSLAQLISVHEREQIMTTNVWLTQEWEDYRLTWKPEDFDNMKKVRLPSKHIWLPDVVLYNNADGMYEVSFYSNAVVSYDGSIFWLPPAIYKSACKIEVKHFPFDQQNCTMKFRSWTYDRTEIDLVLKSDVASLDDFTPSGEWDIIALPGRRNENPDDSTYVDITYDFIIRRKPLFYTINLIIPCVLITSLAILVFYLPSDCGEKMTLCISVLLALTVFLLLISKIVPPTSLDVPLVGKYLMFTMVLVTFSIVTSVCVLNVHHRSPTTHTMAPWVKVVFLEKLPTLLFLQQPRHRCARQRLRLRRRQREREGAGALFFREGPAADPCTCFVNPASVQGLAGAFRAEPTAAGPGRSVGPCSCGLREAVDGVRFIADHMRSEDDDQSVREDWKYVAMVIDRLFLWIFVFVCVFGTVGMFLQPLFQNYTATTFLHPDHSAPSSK
measurement.notes: Displacement of [3H]-cytisine from Alpha4-beta2 Nicotinic acetylcholine receptor of rat brain homogenates
pKi: −log10 of the molar value.
Is pKi at least 10? Then met. If not, not met.

CN1CCCC1COc1ccccn1 (stereo not drawn) : not met

Qu. Reported pKi reaches at least 10 for "Cc1cc([C@@H]2CCCN2C)on1" ?
Ans. not met

Qu. Reported pKi reaches at least 10 for c1cncc(C2CC3CCC2N3)c1 (single isomer, unassigned; (-)) [DESCHLOROEPIBATIDINE] ?
Ans. met

* * *

measurement.notes: Lethal dose against rodents
Type: toxicity
recorded.conditions: rodentia
parameter: LD50 (µmol/kg)
Only the number, expressed in µmol/kg, is required.

Record CN1C2C=C(c3cccnc3)CC1CC2 (stereo unspecified) , field LD50: 0.25

* * *

A collection of compounds and their measured LD50
measurement.notes: Lethal dose against rodents; Range = 7-67 nmol/kg
Type: toxicity
recorded.conditions: rodentia, in vivo
Only the number, expressed in µmol/kg, is required.

Clc1ccc([C@@H]2C[C@H]3CC[C@@H]2N3)cn1 [(+)-EPIBATIDINE] : 0.067

Now examine the next entry.
Record Clc1ccc(C2CC3CCC2N3)cn1 (configuration not stated) [EPIBATIDINE] , field LD50: 0.067

* * *

A collection of molecules and their measured EC50
assayed.system: Neuronal acetylcholine receptor; alpha3/beta4 (Rattus norvegicus, UniProt P04757+P12392)
measurement.notes: Effective concentration against alpha3-beta4 nicotinic acetylcholine receptor (nAChR) expressed in Xenopus oocytes
Assay type: cell-based, Oocyte
Only the number, expressed in nM, is required.

c1cncc(C2CC3CCC2N3)c1 (single isomer, unassigned; (+)) [DESCHLOROEPIBATIDINE] : 510

Now examine the next entry.
Record c1cncc(C2CC3CCC2N3)c1 (single isomer, unassigned; (-)) [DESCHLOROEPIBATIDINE] , field EC50: 250

* * *

measurement.notes: Lethal dose against rodents; Range = 1200-10e4 nmol/kg
Type: toxicity
recorded.conditions: rodentia
parameter: LD50
Could you kindly put the unit after your number?

Record CN1CCCC1COc1cccnc1 (stereo unspecified) , field LD50: 100 µmol/kg

* * *

measurement.notes: Lethal dose against rodents; Range = 1.38e7 nmol/kg
Type: toxicity
recorded.conditions: rodentia
parameter: LD50 (µmol/kg)
Only the number, expressed in µmol/kg, is required.

Record "CC(=O)OCC[N+](C)(C)C" , field LD50: 13800

* * *

A collection of compounds and their measured Ki
assayed.system: Neuronal acetylcholine receptor; alpha4/beta2 (Rattus norvegicus, UniProt P09483+P12390)
measurement.notes: Displacement of [3H]-cytisine from Alpha4-beta2 Nicotinic acetylcholine receptor of rat brain homogenates
Only the number, expressed in nM, is required.

Reference set (4 entries):
c1cncc(C2CC3CCC2N3)c1 (single isomer, unassigned; (+)) [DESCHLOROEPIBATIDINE] : 0.064
CN1CCCC1COc1cccnc1 (stereo not given) : 0.15
c1cncc(OCC2CCN2)c1 (stereo not given) : 0.05
CN1CCCC1COc1cnccn1 (stereo not given) : 16.3

Now examine the next entry.
Record CN1CCCC1COc1ccc(Cl)nn1 (stereo not given) , field Ki: 29
